Method Summary: Stability of compound at pH 7.4 assessed as residual rate measured after 2 days
Type: physicochemical
Condition Summary: buffer, time 2 day, read-out: Stability
Quantity Name: remaining at 48 h (%)
Please reply with the bare figure in % and do not write the unit itself.

Incoming: Requested field: remaining at 48 h. Item: CC(C)(C)OC(=O)N[C@@H](CCC(N)=O)C(=O)Oc1ccc2[nH]c3c(c2c1)CCN1C(=O)c2cc(F)ccc2N(c2cccc(F)c2)[C@H]31
Outgoing: 40.2

====

Method Summary: Stability of compound in rat plasma assessed as half-life
Type: ADME, cell-free
Quantity Name: half-life (min)
Please reply with the bare figure in min and do not write the unit itself.

Incoming: Requested field: half-life. Item: CC(C)(C)OC(=O)N[C@@H](CCC(N)=O)C(=O)Oc1ccc2[nH]c3c(c2c1)CCN1C(=O)c2cc(F)ccc2N(c2cccc(F)c2)[C@H]31
Outgoing: 36

====

Entries annotated with measured Tmax
Method Summary: Tmax in male Sprague-Dawley rat at 50 mg/kg, ip measured after 24 hrs by LC-MS/MS analysis
Assay type: ADME, organism-based
Condition Summary: in vivo
Please reply with the bare figure in min and do not write the unit itself.

Smiles Data: O=C1c2cc(F)ccc2N(c2cccc(F)c2)[C@@H]2c3[nH]c4ccc(O)cc4c3CCN12
Tmax / min: 30

Query compound follows.
Incoming: Requested field: Tmax. Item: CC(C)(C)OC(=O)N[C@@H](CCC(N)=O)C(=O)Oc1ccc2[nH]c3c(c2c1)CCN1C(=O)c2cc(F)ccc2N(c2cccc(F)c2)[C@H]31
Outgoing: 60

====

System: SGC-7901
Method Summary: Antiproliferative activity against human SGC-7901 cells assessed as inhibition of cell growth incubated for 72 hrs by MTT assay
Type: functional, cell-based
Condition Summary: SGC-7901, 72 h
IC50 strictly under 40000 nM means condition met; at 40000 nM or over means condition not met.

For orientation, consider the following solved cases.
Molecule: CC(C)C[C@H](NC(=O)OC(C)(C)C)C(=O)Oc1ccc2[nH]c3c(c2c1)CCN1C(=O)c2cc(F)ccc2N(c2cccc(F)c2)[C@@H]31
Group: condition not met
--
Molecule: CCC(C)[C@H](NC(=O)OC(C)(C)C)C(=O)Oc1ccc2[nH]c3c(c2c1)CCN1C(=O)c2cc(F)ccc2N(c2cccc(F)c2)[C@H]31 (stereo not given in full)
Group: condition met
--
Molecule: CC(C)(C)OC(=O)N[C@@H](Cc1ccccc1)C(=O)Oc1ccc2[nH]c3c(c2c1)CCN1C(=O)c2cc(F)ccc2N(c2cccc(F)c2)[C@@H]31
Group: condition not met
--
Molecule: CC(C)(C)OC(=O)N[C@@H](Cc1ccccc1)C(=O)Oc1ccc2[nH]c3c(c2c1)CCN1C(=O)c2cc(F)ccc2N(c2cccc(F)c2)[C@H]31
Group: condition met
--
Molecule: CC(C)[C@H](NC(=O)OC(C)(C)C)C(=O)Oc1ccc2[nH]c3c(c2c1)CCN1C(=O)c2cc(F)ccc2N(c2cccc(F)c2)[C@H]31
Group: condition met
--
Molecule: CC(C)(C)OC(=O)N[C@@H](COCc1ccccc1)C(=O)Oc1ccc2[nH]c3c(c2c1)CCN1C(=O)c2cc(F)ccc2N(c2cccc(F)c2)[C@H]31
Group: condition met

Incoming: IC50 strictly < 40000 nM for this molecule? CC(C)(C)OC(=O)N[C@@H](CCC(N)=O)C(=O)Oc1ccc2[nH]c3c(c2c1)CCN1C(=O)c2cc(F)ccc2N(c2cccc(F)c2)[C@H]31
Outgoing: condition met

Incoming: What about this molecule? CC(C)(C)OC(=O)NCC(=O)Oc1ccc2[nH]c3c(c2c1)CCN1C(=O)c2cc(F)ccc2N(c2cccc(F)c2)[C@H]31
Outgoing: condition met

Incoming: What about this molecule? CC(C)[C@H](NC(=O)OC(C)(C)C)C(=O)Oc1ccc2[nH]c3c(c2c1)CCN1C(=O)c2cc(F)ccc2N(c2cccc(F)c2)[C@@H]31
Outgoing: condition not met

====

Entries annotated with measured IC50
System: Huh-7
Method Summary: Antiproliferative activity against human Huh-7 cells assessed as inhibition of cell growth incubated for 72 hrs by MTT assay
Assay type: functional, cell-based
Condition Summary: Huh-7, 72 h
Please reply with the bare figure in µM and do not write the unit itself.

Compound: CC(C)(C)OC(=O)N[C@@H](Cc1ccccc1)C(=O)Oc1ccc2[nH]c3c(c2c1)CCN1C(=O)c2cc(F)ccc2N(c2cccc(F)c2)[C@H]31
Quantity Name: IC50
Unit Text: µM
Readout Number: 0.2

Incoming: Provide the documented IC50 with Huh-7 as the system for CC(C)(C)OC(=O)N[C@@H](Cc1c[nH]c2ccccc12)C(=O)Oc1ccc2[nH]c3c(c2c1)CCN1C(=O)c2cc(F)ccc2N(c2cccc(F)c2)[C@H]31
Outgoing: 0.4

Incoming: What about this compound? CC(C)[C@H](NC(=O)OC(C)(C)C)C(=O)Oc1ccc2[nH]c3c(c2c1)CCN1C(=O)c2cc(F)ccc2N(c2cccc(F)c2)[C@H]31
Outgoing: 0.28

Incoming: What about this compound? CC(C)(C)OC(=O)N[C@@H](CCC(N)=O)C(=O)Oc1ccc2[nH]c3c(c2c1)CCN1C(=O)c2cc(F)ccc2N(c2cccc(F)c2)[C@@H]31
Outgoing: 11.5

Incoming: What about this compound? CCC(C)[C@H](NC(=O)OC(C)(C)C)C(=O)Oc1ccc2[nH]c3c(c2c1)CCN1C(=O)c2cc(F)ccc2N(c2cccc(F)c2)[C@H]31 (some centres not stated)
Outgoing: 0.31

Incoming: What about this compound? C[C@H](NC(=O)OC(C)(C)C)C(=O)Oc1ccc2[nH]c3c(c2c1)CCN1C(=O)c2cc(F)ccc2N(c2cccc(F)c2)[C@@H]31
Outgoing: 11.7

Incoming: What about this compound? C[C@H](NC(=O)OC(C)(C)C)C(=O)Oc1ccc2[nH]c3c(c2c1)CCN1C(=O)c2cc(F)ccc2N(c2cccc(F)c2)[C@H]31
Outgoing: 0.16

Incoming: What about this compound? CCC(C)[C@H](NC(=O)OC(C)(C)C)C(=O)Oc1ccc2[nH]c3c(c2c1)CCN1C(=O)c2cc(F)ccc2N(c2cccc(F)c2)[C@@H]31 (some centres not stated)
Outgoing: 46

Incoming: What about this compound? CC(C)C[C@H](NC(=O)OC(C)(C)C)C(=O)Oc1ccc2[nH]c3c(c2c1)CCN1C(=O)c2cc(F)ccc2N(c2cccc(F)c2)[C@H]31
Outgoing: 0.14

Incoming: What about this compound? CC(C)(C)OC(=O)NCC(=O)Oc1ccc2[nH]c3c(c2c1)CCN1C(=O)c2cc(F)ccc2N(c2cccc(F)c2)[C@@H]31
Outgoing: 17.2

Incoming: What about this compound? CC(C)(C)OC(=O)N[C@@H](CCC(N)=O)C(=O)Oc1ccc2[nH]c3c(c2c1)CCN1C(=O)c2cc(F)ccc2N(c2cccc(F)c2)[C@H]31
Outgoing: 0.37

====

Method Summary: AUC (0 to t) in male Sprague-Dawley rat at 50 mg/kg, ip measured after 24 hrs by LC-MS/MS analysis
Type: ADME, organism-based
Condition Summary: in vivo
Entries annotated with measured AUC(0-t) at 24 h
Please reply with the bare figure in ng·h/mL and do not write the unit itself.

Smiles Data: CC(C)(C)OC(=O)N[C@@H](CCC(N)=O)C(=O)Oc1ccc2[nH]c3c(c2c1)CCN1C(=O)c2cc(F)ccc2N(c2cccc(F)c2)[C@H]31
Readout Number: 14600

Incoming: Requested field: AUC(0-t) at 24 h. Item: O=C1c2cc(F)ccc2N(c2cccc(F)c2)[C@@H]2c3[nH]c4ccc(O)cc4c3CCN12
Outgoing: 4350

====

Test system: HGC-27
Method Summary: Antiproliferative activity against human HGC-27 cells assessed as inhibition of cell growth incubated for 72 hrs by MTT assay
Assay type: functional, cell-based
Condition Summary: HGC-27, 72 h
Entries annotated with measured pIC50
Just the number, please; pIC50 means minus log10 of the concentration in mol/L.

Here are 5 compounds together with their reported answers.
Compound: CC(C)[C@H](NC(=O)OC(C)(C)C)C(=O)Oc1ccc2[nH]c3c(c2c1)CCN1C(=O)c2cc(F)ccc2N(c2cccc(F)c2)[C@@H]31
Readout Number: 4.65
--
Compound: C[C@H](NC(=O)OC(C)(C)C)C(=O)Oc1ccc2[nH]c3c(c2c1)CCN1C(=O)c2cc(F)ccc2N(c2cccc(F)c2)[C@H]31
Readout Number: 6.57
--
Compound: CC(C)(C)OC(=O)N[C@@H](Cc1cnc[nH]1)C(=O)Oc1ccc2[nH]c3c(c2c1)CCN1C(=O)c2cc(F)ccc2N(c2cccc(F)c2)[C@H]31
Readout Number: 6.80
--
Compound: CC(C)C[C@H](NC(=O)OC(C)(C)C)C(=O)Oc1ccc2[nH]c3c(c2c1)CCN1C(=O)c2cc(F)ccc2N(c2cccc(F)c2)[C@H]31
Readout Number: 6.52
--
Compound: CCC(C)[C@H](NC(=O)OC(C)(C)C)C(=O)Oc1ccc2[nH]c3c(c2c1)CCN1C(=O)c2cc(F)ccc2N(c2cccc(F)c2)[C@H]31 (stereo partly drawn)
Readout Number: 6.28

Incoming: Provide the documented pIC50 with HGC-27 as the system for CC(C)[C@H](NC(=O)OC(C)(C)C)C(=O)Oc1ccc2[nH]c3c(c2c1)CCN1C(=O)c2cc(F)ccc2N(c2cccc(F)c2)[C@H]31
Outgoing: 6.38

Incoming: What about this compound? C[C@H](NC(=O)OC(C)(C)C)C(=O)Oc1ccc2[nH]c3c(c2c1)CCN1C(=O)c2cc(F)ccc2N(c2cccc(F)c2)[C@@H]31
Outgoing: 4.69

Incoming: What about this compound? CC(C)(C)OC(=O)N[C@@H](CCC(N)=O)C(=O)Oc1ccc2[nH]c3c(c2c1)CCN1C(=O)c2cc(F)ccc2N(c2cccc(F)c2)[C@H]31
Outgoing: 6.96

Incoming: What about this compound? CCC(C)[C@H](NC(=O)OC(C)(C)C)C(=O)Oc1ccc2[nH]c3c(c2c1)CCN1C(=O)c2cc(F)ccc2N(c2cccc(F)c2)[C@@H]31 (stereo partly drawn)
Outgoing: 4.25

Incoming: What about this compound? CC(C)(C)OC(=O)N[C@@H](Cc1c[nH]c2ccccc12)C(=O)Oc1ccc2[nH]c3c(c2c1)CCN1C(=O)c2cc(F)ccc2N(c2cccc(F)c2)[C@H]31
Outgoing: 6.48

Incoming: What about this compound? CC(C)C[C@H](NC(=O)OC(C)(C)C)C(=O)Oc1ccc2[nH]c3c(c2c1)CCN1C(=O)c2cc(F)ccc2N(c2cccc(F)c2)[C@@H]31
Outgoing: 4.73

Incoming: What about this compound? CC(C)(C)OC(=O)N[C@@H](Cc1cnc[nH]1)C(=O)Oc1ccc2[nH]c3c(c2c1)CCN1C(=O)c2cc(F)ccc2N(c2cccc(F)c2)[C@@H]31
Outgoing: 4.63

Incoming: What about this compound? CC(C)(C)OC(=O)NCC(=O)Oc1ccc2[nH]c3c(c2c1)CCN1C(=O)c2cc(F)ccc2N(c2cccc(F)c2)[C@H]31
Outgoing: 6.70
